- measurementProtocol: chemical genetic growth profiling, strain panel (AID 1159580);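 further: tested at 20 µM; growth read once vehicle control cultures reached saturation at 30 °C; 1 = growth at the plate median or of vehicle wells; lower values mean less growth of the strain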
- details: S. cerevisiae deletion strains, growth OD, locus YOR231W, strain MKK1
Among all 5,500 compounds or so, about 2,000 (36%) were called active. Inconclusive results (about 18%) are left out. No stated cut-off is given here; in the data, active means normalized growth mostly below about 0.91 (no sharp cut-off); inconclusive means no clear call, values can overlap the other calls; inactive means mostly above about 0.92. This is one part of the list. Where a SMILES comes first, the peptide text is derived from it.
Outcome codes: active, inactive

NC(N)=NC(=O)c1nc(Cl)c(N)nc1N
inactive
C=C(C)[C@H]1COc2cc3oc(=O)ccc3cc2O1
inactive
O=C1[O][Bi][O]c2ccccc21
inactive
CC(C)N(CCC(C(N)=O)(c1ccccc1)c1ccccn1)C(C)C (stereo not drawn)
inactive
FC(F)(F)c1ccc(N2CCc3ccccc3C2)c(NC(=S)Nc2cc(Cl)cc(Cl)c2)c1
inactive
COc1cc2occc2c2oc(=O)ccc12
inactive
O=C(O)C1=C[C@@H](O)[C@@H](O)[C@H](O)C1
inactive
COc1cc(OC)c2ccc(=O)oc2c1
inactive
CO[C@@]1(NC(=O)C(C(=O)O)c2ccc(O)cc2)C(=O)N2C(C(=O)O)=C(CSc3nnnn3C)CO[C@@H]21 (stereo partly drawn)
inactive
C[C@@H]1CC[C@@]2(OC1)OC1CC3C4CC=C5C[C@@H](O)CC[C@]5(C)C4CC[C@]3(C)C1[C@@H]2C (stereo partly drawn)
inactive
COc1ccc2ccc(=O)oc2c1
inactive
CCN(Cc1ccncc1)C(=O)C(CO)c1ccccc1 (stereo not drawn)
inactive
CN1C[C@H](C(=O)N[C@]2(C)C[C@@]3(O)C4CCCN4C(=O)[C@H](Cc4ccccc4)N3C2=O)C=C2c3cccc4[nH]cc(c34)C[C@H]21 (stereo partly drawn)
inactive
C[C@@H]1CC[C@@]2(OC1)O[C@H]1CC3C4CC[C@H]5C[C@@H](O)CC[C@]5(C)C4CC[C@]3(C)[C@H]1[C@@H]2C (stereo partly drawn)
inactive
CC1(C)C(=O)C=C[C@@]2(C)C1CC(=O)[C@]1(C)C2CC[C@@]2(C)[C@H](c3ccoc3)OC(=O)[C@H]3O[C@]321 (stereo partly drawn)
inactive
COc1ccc(Cl)cc1C(=O)NCCc1ccc(S(=O)(=O)NC(=O)NC2CCCCC2)cc1
inactive
O/N=C(/c1ccc(Cl)cc1)c1cc2ccccc2o1
inactive
O=C(O)Cc1cnc[nH]1
inactive
CC(=O)O[C@@H]1CC2C(C)(C)C(=O)C=C[C@]2(C)C2CC[C@@]3(C)[C@H](c4ccoc4)OC(=O)[C@H]4O[C@]43[C@@]21C (stereo partly drawn)
inactive
Cc1[nH]ccc2c1[nH]c1cc(=O)ccc12
inactive
NC(=O)CN1CCCC1=O
inactive
O=C1C(Cl)=C(Oc2cc(Cl)c(Cl)cc2Cl)C(=O)c2ccccc21
active
CC(CC(C(N)=O)(c1ccccc1)c1ccccc1)N(C)C (stereo not drawn)
inactive
COC(=O)[C@H](Cc1ccccc1)NC(=O)[C@@H](N)CC(=O)O (H-Asp-Phe-OMe)
inactive
Cc1ccccc1OCC(O)CO (stereo not drawn)
inactive
CC1(C)C(=O)C=C[C@@]2(C)C1C=C[C@]1(C)C2CC[C@@]2(C)[C@H](c3ccoc3)OC(=O)C3OC321 (stereo partly drawn)
inactive
CC1CCC2(OC1)OC1CC3C4CC[C@H]5C[C@@H](O)CC[C@]5(C)C4CC(=O)[C@]3(C)C1C2C (stereo partly drawn)
inactive
CC1(C)C2CC(=O)[C@]3(C)C(CC[C@@]4(C)[C@H](c5ccoc5)OC(=O)[C@H]5O[C@]543)[C@@]2(C)C(=O)C[C@H]1O (stereo partly drawn)
inactive

----------
- measurementProtocol: chemical genetic growth profiling, strain panel (AID 1159580);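 further: tested at 20 µM; growth read once vehicle control cultures reached saturation at 30 °C; 1 = growth at the plate median or of vehicle wells; lower values mean less growth of the strain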
- details: S. cerevisiae deletion strains, growth OD, locus YGL253W, strain hxk2, hits give low values
Screen size: about 5,500 compounds; about 2,000 (36%) were called active. Another 18% or so got no clear call; they are omitted. Some of the results follow.
observedProperty: normalized growth

COc1ccc2c(c1)CCC1C2CC[C@@]2(C)C1CC[C@@H]2O (stereo partly specified)
0.786
COc1ccc2c(c1)CCC1C2CCC2(C)C1C[C@@H](O)C2O (stereo partly specified)
0.903
O=C(O[C@@H]1Cc2c(O)cc(O)cc2O[C@@H]1c1cc(O)c(=O)c2c(O)c(O)cc([C@H]3Oc4cc(O)cc(O)c4C[C@H]3O)c2c1)c1cc(O)c(O)c(O)c1
0.588
C[C@@H]1O[C@@H](OC[C@H]2OC(Oc3c(-c4ccc(O)c(O)c4)oc4cc(O)cc(O)c4c3=O)[C@H](O)[C@@H](O)[C@@H]2O)[C@H](O)[C@H](O)[C@H]1O (stereo partly specified)
0.991
CCCCCC(=O)Cc1cc(O)cc(O)c1C(=O)Oc1cc(CC(=O)CCCCC)c(C(=O)O)c(OC)c1
0.855
C[C@]12CCC3c4ccc(O)cc4CCC3C1CC[C@@H]2O (stereo partly specified)
0.895
CN[C@@H]1C(O)[C@@H](O[C@@H]2[C@@H](O)[C@H](O[C@H]3OC(CN)=CC[C@H]3N)[C@@H](N)C[C@H]2N)OC[C@]1(C)O (stereo partly specified)
1
O=c1c(O)c(-c2ccc(O)c(O)c2)oc2cc(O)cc(O)c12
0.83
CC(C)c1c(O)ccc2c1CCC1C(C)(C)CCC[C@]21C (stereo partly specified)
0.67
CCOCN(C(=O)CCl)c1c(C)cccc1CC
0.981
CCCCCc1c2c(cc(O)c1C(=O)O)OC(=O)c1c(cc(OC)cc1C(=O)CCCC)O2
1.01

----------
Entries and their normalized growth
- measurementProtocol: chemical genetic growth profiling, strain panel (AID 1159580);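 further: tested at 20 µM; growth read once vehicle control cultures reached saturation at 30 °C; 1 = growth at the plate median or of vehicle wells; lower values mean less growth of the strain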
- details: S. cerevisiae deletion strains, growth OD, locus YKL009W, strain mrt4, hits give low values
The campaign covered roughly 5,500 compounds. About 2,000 (36%) were called active. About 18% were inconclusive and are not listed. The list shows a part of the results.
observedProperty: normalized growth

CCC1OC(=O)[C@H](C)C(=O)[C@H](C)[C@@H](OC2O[C@H](C)C[C@H](N(C)C)[C@H]2O)[C@](C)(OC)C2(CCCn3cnc(-c4cccnc4)c3)C[C@@H](C)C(=O)[C@H](C)[C@H]3N(C2)C(=O)O[C@]13C (stereo partly drawn)
1.01
COc1ccc(-c2oc3c(CC=C(C)C)c(O[C@@H]4O[C@H](CO)[C@@H](O)[C@H](O)[C@H]4O)cc(O)c3c(=O)c2O[C@@H]2O[C@@H](C)[C@H](O)[C@@H](O)[C@H]2O)cc1
0.963
CC1(C)C(=O)C=C[C@@]2(C)C1C[C@@H](O)[C@]1(C)C2CC[C@@]2(C)[C@H](c3ccoc3)OC(=O)[C@H]3O[C@]321 (stereo partly drawn)
0.95
COC(=O)C1OC(=O)C2OC23C1(C)CCC1C2(C)C(OC(C)=O)CC(OC(C)=O)C(C)(C)C2CC(=O)C13C (stereo not drawn)
0.967
O=C(O[C@@H]1Cc2c(O)cc(O)cc2O[C@@H]1c1cc(O)c(=O)c2c(O)c(O)cc([C@H]3Oc4cc(O)cc(O)c4C[C@H]3OC(=O)c3cc(O)c(O)c(O)c3)c2c1)c1cc(O)c(O)c(O)c1
1.06
NC(N)=NC(=O)c1nc(Cl)c(N)nc1N
1.03
CC/C(=C(/CC)c1ccc(O)cc1)c1ccc(O)cc1
0.916
CNC(C)C(O)c1ccccc1 (stereo not drawn)
1.01
CC(C)(C)NCC(O)c1cc(O)cc(O)c1 (stereo not drawn)
0.961
C[C@@H]([C@H](O)c1ccccc1)N(C)C
1.02
COc1ccc2c3c1OC1C(O)CC=C4C(C2)N(C)CCC431 (stereo not drawn)
1.03
CN(C)c1nc(N)c(C(=O)N=C(N)N)nc1Cl
1.06
CC1(C)C(=O)C=C[C@@]2(C)C1CC(=O)[C@]1(C)C2CC[C@@]2(C)[C@H](c3ccoc3)OC(=O)[C@H]3O[C@]321 (stereo partly drawn)
1
O=C(OC1Cc2c(O)cc(O)cc2OC1c1cc(=O)c(O)c2c(O)c(O)cc(C3Oc4cc(O)cc(O)c4CC3O)c2c1)c1cc(O)c(O)c(O)c1 (stereo not drawn)
1.02
O=c1c(O)c(-c2ccc(O)cc2O)oc2cc(O)cc(O)c12
1.01
NC(=O)NCC(N)C(=O)O (stereo not drawn)
1
CNC(=O)Oc1cccc2c1OC(C)(C)O2
1.02
CCN(Cc1ccncc1)C(=O)C(CO)c1ccccc1 (stereo not drawn)
1.01

----------
- measurementProtocol: chemical genetic growth profiling, strain panel (AID 1159580);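 further: tested at 20 µM; growth read once vehicle control cultures reached saturation at 30 °C; 1 = growth at the plate median or of vehicle wells; lower values mean less growth of the strain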
- details: S. cerevisiae deletion strains, growth OD, locus YLR418C, strain cdc73, hits give low values
Out of some 5,500 compounds screened, about 2,000 (36%) were called active. About 18% were inconclusive and are not listed. The list shows a part of the results.
Entries and their normalized growth
observedProperty: normalized growth

CCC/C=C1\OC(=O)C2=C1CCC=C2
0.959
OCC(O)C(O)C(O)C(O)C(O)CO (centres undefined)
1
CC1(C)C(=O)C=C[C@@]2(C)C1C[C@@H](O)[C@]1(C)C2CC[C@@]2(C)[C@H](c3ccoc3)OC(=O)[C@H]3O[C@]321 (some centres undefined)
0.933
CC1(C)C2CC(=O)[C@]3(C)C(CC[C@@]4(C)[C@H](c5ccoc5)OC(=O)[C@H]5O[C@]543)[C@@]2(C)C(=O)C[C@H]1O (some centres undefined)
1.03
COc1ccc2c3c1OC1C(O)CC=C4C(C2)N(C)CCC431 (centres undefined)
1.02
CC1(C)C(=O)C=C[C@@]2(C)C1C=C[C@]1(C)C2CC[C@@]2(C)[C@H](c3ccoc3)OC(=O)C3OC321 (some centres undefined)
0.655
CC1CC[C@@]2(OC1)O[C@H]1CC3C4CC[C@@H]5CC(=O)CC[C@]5(C)C4CC[C@]3(C)[C@H]1[C@@H]2C (some centres undefined)
0.942
C[C@@H]1CC[C@@]2(NC1)O[C@H]1C[C@H]3C4CC=C5C[C@@H](O)CC[C@]5(C)C4CC[C@]3(C)C1[C@@H]2C (some centres undefined)
0.127
C[C@]12CCC3c4ccc(O)cc4CCC3C1CC[C@@H]2O (some centres undefined)
0.896
CCCC(C)(COC(N)=O)COC(=O)NC(C)C (centres undefined)
1.01
CC1(C)C2CC(=O)[C@]3(C)C(CC[C@@]4(C)[C@H](c5ccoc5)OC(=O)C5OC543)[C@@]2(C)[C@@H](O)C[C@H]1O (some centres undefined)
0.974
C[C@@H]1CC[C@@]2(OC1)OC1CC3C4CC=C5C[C@@H](O)CC[C@]5(C)C4CC[C@]3(C)C1[C@@H]2C (some centres undefined)
0.992
CC1CC[C@]2(NC1)O[C@H]1CC3C4CC[C@H]5C[C@@H](O)CC[C@]5(C)C4CC[C@]3(C)[C@H]1[C@@H]2C (some centres undefined)
0.141
CCc1cc(C(N)=S)ccn1
0.999
